Measured screen value, listed per entry for reference.
B1: PEX5 peptide 110-125 (Peroxisomal targeting signal 1 receptor), 16-mer library wild type / PEX14 Pex14 (PEX14 PEX14, residues 16-84) (parent)
chain 1: ADLALSENWAQEFLAA
chain 2: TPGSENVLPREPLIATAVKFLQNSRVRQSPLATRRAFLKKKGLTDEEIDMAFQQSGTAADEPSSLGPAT

variants of: B1; experiment: proteomic peptide phage display deep mutational scan (ProP-PD DMS): M13 P8 16-mer library selected against immobilised GST-tagged bait for four days (rounds), NGS of the eluted pools per day and pseudo-replica; conditions: with PEX14 Pex14 (PEX14 PEX14, residues 16-84); bait immobilised on MaxiSorp plates (10 µg), library pre-cleared on GST, 2 h binding at 4 °C, five washes; one round per day, days 1-4; value from days 2 and 3; scale: average fractional NGS count over selection days 2 and 3

[
  {
    "Variant Descriptor": "chain 1 E12D",
    "screen value": 0.000116
  },
  {
    "Variant Descriptor": "chain 1 E12N",
    "screen value": 0
  },
  {
    "Variant Descriptor": "chain 1 L5D",
    "screen value": 0
  },
  {
    "Variant Descriptor": "chain 1 A10P",
    "screen value": 0.000417
  },
  {
    "Variant Descriptor": "chain 1 E7Q",
    "screen value": 0.000175
  }
]

Can you look up the measured screen value of chain 1 E12K for me?
0.000191

I would be grateful if you could share the reported screen value for chain 1 L14W .
0.000163

Endpoint output: screen value of chain 1 W9P . Value?
0

Which screen value value belongs to chain 1 D2M ?
0.000156

# get_value(readout='screen value', item= chain 1 A15S )
0

// lookup screen value for chain 1 F13T
0.0002

Returns the measured screen value for the input variant. Input: chain 1 L5I
9.07e-05

Query: screen value; subject: chain 1 A10Q
0

# screen value lookup, item chain 1 D2F
0

Field request: screen value | item: chain 1 L14H
0.000116

Please look up its screen value: chain 1 D2G
0.000331

// returns reported screen value for input chain 1 A1V
0.000338

Bench note: what screen value did chain 1 F13S show?
9.56e-05

Reported screen value for chain 1 Q11I : what is it?
0.000186

screen value lookup needed for chain 1 A4M , thanks.
0.000358

Hey, just so you know, these numbers are from paper PMC12102759.
